The values you see were collected from PubChem BioAssay (NCI).

Test system: MALME-3M melanoma
ASSAY_EXPLANATION: NCI tumour cell line growth inhibition, 48 h; in the data active = GI50 below about 0.43 µM; inactive = the rest
Result category, one only: label 1 for active, label 0 for inactive

Would you please look over these solved cases?
CCc1n(Cc2ccc3ccccc3c2)cc[n+]1Cc1ccc2ccccc2c1: label 1
CC(C)(C)c1ccc(OCCCCCCCN2CCNCC2)cc1: label 0
CCOC(=O)c1c(C)n(Cc2ccc(Cl)cc2Cl)c2c1cc(O)c1[nH]c(Cc3ccccc3)nc12: label 0
O=C(Nc1cccc2[nH]c(C(F)(F)F)nc12)c1ccc(Br)cc1F: label 0
COc1cccc2c1C(=O)c1c(O)c3c(c(O)c1C2=O)C[C@@](O)(C(=O)CO)C[C@@H]3OC1CC2C(OCN2CN2COC3C(C)OC(O[C@H]4C[C@](O)(C(=O)CO)Cc5c(O)c6c(c(O)c54)C(=O)c4c(OC)cccc4C6=O)CC32)C(C)O1 (some centres undefined): label 1

**Q:** Tell me the assay call for COc1cccc(/C=C2\COc3ccc(O)c(O)c3C2=O)c1OC please.
**A:** label 0

**Q:** Please indicate how the test categorized COc1cc(/C=C/C(=O)c2cccc(-n3cc(-c4ccccc4)[nH]c3=O)c2)ccc1O .
**A:** label 0

**Q:** Assay outcome for C(#Cc1ccccc1C#Cc1cnccn1)c1cnccn1 : what was it?
**A:** label 0

**Q:** GET /call?item= CCOC(=O)c1ccc(N[C@@H]2c3cc4c(cc3C(c3cc(OC)c(O)c(OC)c3)[C@H]3C(=O)OCC32)OCO4)cc1 (some centres undefined) returns the recorded outcome of this test.
**A:** label 1
